CC50 at 24 h by entry:
- Experiment Notes: Cell viability, MTT assay, with LPS treatment
- Type: cell-based, murine
- Measurement Parameters: mouse; RAW 264.7 cells, MTT, LPS 1 µg/mL, 24 h; mean ± SD, n = 3

Past entries and their recorded results:
Compound	Result
COc1cc(O)c2c(=O)oc3cc(O)c(C)cc3c2c1	48.2 µM
COc1cc(O)c2c(=O)oc3cc(CO)cc(O)c3c2c1 [Compound 15, alternariol-1’-hydroxy-9-methyl ether]	48.7 µM
COc1cc(O)c2c(c1)-c1cc(O)c(O)cc1COC2=O	> 100 µM
COc1cc(O)c2c(=O)oc3cc(O)cc(C)c3c2c1	> 100 µM
COc1cc(O)c(C(=O)O)c(-c2cc(O)c(O)cc2C)c1	> 100 µM

Below: the item to evaluate.
So, Cc1cc(O)cc2oc(=O)c3c(O)cc(O)cc3c12 ? Its CC50 at 24 h was 50.4 µM
